Tested on: SF-539
Test: NCI tumour cell line growth inhibition, 48 h
Active and inactive are the calls of the source. No stated cut-off is given here; in the data, active = GI50 up to about 1.1 µM and inactive = higher.
Outcome codes: active, inactive

| compound | group label |
| --- | --- |
| CC[C@H](CC[C@@H](C)[C@H]1CC[C@H]2[C@@H]3CC=C4C[C@@H](O)CC[C@]4(C)[C@H]3CC[C@]12C)C(C)C [BETA-SITOSTEROL] | inactive |
| COC(=O)CNC(=O)CCSc1nnc(COc2ccc(Cl)cc2)n1-c1ccccc1 | inactive |
| COC(=O)c1sc2c(c1C(=O)OC)/C(=N/c1ccc(OC)cc1)S/C2=N\c1ccc(OC)cc1 | active |
| COc1cc2c(cc1[N+](=O)[O-])C(=O)C(Br)(Br)CCC2 | inactive |
| COc1ccc(C2S/C(=C\c3cccc(OC)c3)C(=O)N2NC(=O)Cc2ccccc2)cc1 (stereo not drawn) | inactive |
| O=C(/C=C/c1ccc(/C=C/C(=O)c2ccc(O)cc2)cc1)c1ccc(O)cc1 | inactive |
| O/N=C1/C(=C/c2ccc3c(c2)OCO3)CCCC1C(NO)c1ccc2c(c1)OCO2 (stereo not drawn) | inactive |
| CC1=Nc2ccccc2NC(c2ccoc2)C1 (stereo not drawn) | inactive |
| NC(=O)C(c1ccccc1)N1OC2C(=O)N(c3ccccc3)C(=O)C2C1c1c2ccccc2c(Cl)c2ccccc12 (stereo not drawn) | inactive |
| C[C@]12CCC3c4ccc(O)cc4CC[C@H]3C1CC(=O)N(N)C2=O (stereo partly drawn) | inactive |
| Clc1cc(Cl)c2n[se]nc2c1 | inactive |
| COc1cc(NC(C)=O)ccc1C(=O)NN1C(=O)/C(=C/c2ccco2)N=C1c1ccccc1 | inactive |
| CC1=NN(c2nc(N)nc(/C(C#N)=C\c3cccc([N+](=O)[O-])c3)n2)C(C)(C)C1 | inactive |
| N#CCCN(CCC#N)c1ccc(/C=C2\N=C(c3ccccc3)N(c3ccccn3)C2=O)cc1 | inactive |
| COc1nc(OC)nc(-c2cccc(F)c2)n1 | inactive |
| CCOP(=O)(OCC)C(C)(CC)NC1=NC(C(F)(F)F)(C(F)(F)F)NC(=O)N1 (stereo not drawn) | inactive |
| Cc1ccc(C2=Nc3c(c(C)nn3-c3ccccc3)N=C(C(=O)O)C2)cc1 | inactive |
| CC1CC2C3CC(F)C4=CC(=O)C=CC4(C)C3(F)C(O)CC2(C)C1(O)C(=O)COC(=O)C(C)(C)C (stereo not drawn) | inactive |

###

Tested on: A549
Test: NCI tumour cell line growth inhibition, 48 h
Activity calls are given as the source filed them. No stated cut-off is given here; in the data, active = GI50 up to about 1.1 µM and inactive = higher.
The reader will find reported GI50 values listed item by item below.
observation type: GI50

| compound | observation type | result |
| --- | --- | --- |
| CC1=C(C(=O)N[C@@H](CC(C)C)C(=O)O)N2C(=O)[C@@H](NC(=O)C(N)c3ccccc3)[C@H]2SC1 (some centres undefined) | GI50 | > 100 µM (inactive) |
| N#CC(Cc1ccccc1)N(CCC1=CCCCC1)Cc1ccccc1 (centres undefined) | GI50 | 54.7 µM (inactive) |
| Nc1c(Cl)c([N+](=O)[O-])cc2c1OCCCCO2 | GI50 | > 100 µM (inactive) |
| COc1cc(OC)c(SSCCCCS(=O)O)c(OC)c1 | GI50 | 19 µM (inactive) |
| COc1cc2oc(=O)ccc2cc1C(=O)CC(C)C | GI50 | > 100 µM (inactive) |
| C[Si](C)(C)CCOCN(C(=O)C1=CCC2(CC1)OCCO2)c1ccccc1I | GI50 | 23.6 µM (inactive) |
| COc1ccc(CC(N)c2ccc(OC)cc2)cc1 (centres undefined) | GI50 | > 100 µM (inactive) |
| COc1ccc(N2C(=O)C3ON(C(C(N)=O)c4ccccc4)C(c4ccc(-c5ccccc5)cc4)C3C2=O)cc1 (centres undefined) | GI50 | > 50 µM (inactive) |
| O=C(COc1ccccc1)N(C(=O)N1CCN(c2ccccc2)CC1)S(=O)(=O)c1ccccc1 | GI50 | > 100 µM (inactive) |
| COC(=O)C1OC(O[C@H]2CC[C@]3(C)[C@H]4CC=C5[C@@H]6CC(C)(C)CC[C@]6(C(=O)OC)CC[C@@]5(C)[C@]4(C)CC[C@H]3C2(C)C)C(O)C(O)C1O (some centres undefined) | GI50 | 7.14 µM (inactive) |
| O=[N+]([O-])c1ccc2c(c1)N=C1OC(c3c[nH]c4ccc(COc5ccccc5)cc34)C(O)=C1N2 (centres undefined) | GI50 | > 100 µM (inactive) |
| Cc1ccc(S(=O)(=O)c2ccsc2NC(=O)C(F)(F)F)cc1 | GI50 | 34 µM (inactive) |
| CCN(CC)[C@@H]1c2cc3c(cc2C(c2cc(OC)c(O)c(OC)c2)C2C(=O)CO[C@@H]21)OCO3 (some centres undefined) | GI50 | > 100 µM (inactive) |
| O=C(c1ccccc1)N1CCN2CCN=C(c3ccccc3)C21c1ccccc1 (centres undefined) | GI50 | 95.3 µM (inactive) |

###

The reader will find reported GI50 values listed item by item below.
Test system: SR
Assay: NCI tumour cell line growth inhibition, 48 h
Active and inactive are the calls of the source. Cut-off read from the data, not from the text of the source: active = GI50 up to about 1.1 µM and inactive = higher.

| molecule | study target | GI50 |
| --- | --- | --- |
| NP1(Oc2ccc(F)cc2)=NP(N)(Oc2ccc(F)cc2)=NP(Oc2ccc(F)cc2)(Oc2ccc(F)cc2)=N1 (stereo not drawn) | SR | 4.56 µM (inactive) |
| COc1ccc2nc3c([N+](=O)[O-])ccc4c3c(c2c1)N(CCCN(C)C)C(=S)N4CCCN(C)C | SR | 1.72 µM (inactive) |
| CC(=C/C=C/C=C(C)\C=C\C=C(\C)C(=O)O)/C=C/C=C(/C)C(=O)O | SR | > 100 µM (inactive) |
| COc1ccc(OC)c2c1C(=O)C(Cl)=C(Cl)C2=O | SR | 1.16 µM (inactive) |
| CC(=O)c1ccc(NC(=O)C(=O)C(C(=O)c2ccc(Cl)c(Cl)c2)C2OC(=O)c3ccccc32)cc1 (stereo not drawn) | SR | > 100 µM (inactive) |
| O=C1c2c(O)cccc2C(C(=O)CCCCCC(=O)C2c3cccc(O)c3C(=O)c3c(O)cccc32)c2cccc(O)c21 | SR | 1.79 µM (inactive) |
| COC(=O)C(CCC1CC(OC)N(C(=O)OCc2ccccc2)C1)/N=C/c1ccccc1 (stereo not drawn) | SR | 30.5 µM (inactive) |
| CCOC(=O)c1nc2ccc(C(F)(F)F)cc2nc1Oc1ccc(C#N)cc1 | SR | 81.5 µM (inactive) |
